system: Escherichia coli TOP10; assay: shrunken log2 fold change of peptide-encoding DNA abundance (4.5 h post-induction vs induction); higher = less antimicrobial activity (less host growth inhibition); conditions: time post-induction: 4.5 h; library: site-saturation at positions 5, 18, 19, 20
Please use Met whenever shrunken log2 fold change is not below -0.05, and Not met whenever it is.

RRIRFRPPRLPRPRPRPGARPRP
Met

Prompt: API: above_or_equal(metric=shrunken log2 fold change, cutoff=-0.05) for item "RRIRWRPPRLPRPRPRPYDEPRP"
Completion: Not met

Prompt: API: above_or_equal(metric=shrunken log2 fold change, cutoff=-0.05) for item "RRIRTRPPRLPRPRPRPKIHPRP"
Completion: Not met

Prompt: API: above_or_equal(metric=shrunken log2 fold change, cutoff=-0.05) for item "RRIRFRPPRLPRPRPRPVVKPRP"
Completion: Not met

Prompt: API: above_or_equal(metric=shrunken log2 fold change, cutoff=-0.05) for item "RRIRVRPPRLPRPRPRPNRRPRP"
Completion: Not met

Prompt: API: above_or_equal(metric=shrunken log2 fold change, cutoff=-0.05) for item "RRIRWRPPRLPRPRPRPYMIPRP"
Completion: Not met

Prompt: API: above_or_equal(metric=shrunken log2 fold change, cutoff=-0.05) for item "RRIRARPPRLPRPRPRPRKQPRP"
Completion: Met

Prompt: API: above_or_equal(metric=shrunken log2 fold change, cutoff=-0.05) for item "RRIRSRPPRLPRPRPRPTFAPRP"
Completion: Met

Prompt: API: above_or_equal(metric=shrunken log2 fold change, cutoff=-0.05) for item "RRIRNRPPRLPRPRPRPAGWPRP"
Completion: Met

Prompt: API: above_or_equal(metric=shrunken log2 fold change, cutoff=-0.05) for item "RRIRGRPPRLPRPRPRPQYIPRP"
Completion: Not met

Prompt: API: above_or_equal(metric=shrunken log2 fold change, cutoff=-0.05) for item "RRIRIRPPRLPRPRPRPDWTPRP"
Completion: Met

Prompt: API: above_or_equal(metric=shrunken log2 fold change, cutoff=-0.05) for item "RRIRFRPPRLPRPRPRPLMMPRP"
Completion: Not met

Prompt: API: above_or_equal(metric=shrunken log2 fold change, cutoff=-0.05) for item "RRIRGRPPRLPRPRPRPCESPRP"
Completion: Met

Prompt: API: above_or_equal(metric=shrunken log2 fold change, cutoff=-0.05) for item "RRIRQRPPRLPRPRPRPNRVPRP"
Completion: Not met

Prompt: API: above_or_equal(metric=shrunken log2 fold change, cutoff=-0.05) for item "RRIRNRPPRLPRPRPRPAATPRP"
Completion: Met

Prompt: API: above_or_equal(metric=shrunken log2 fold change, cutoff=-0.05) for item "RRIRFRPPRLPRPRPRPRMEPRP"
Completion: Met

Prompt: API: above_or_equal(metric=shrunken log2 fold change, cutoff=-0.05) for item "RRIRGRPPRLPRPRPRPAYFPRP"
Completion: Met

Prompt: API: above_or_equal(metric=shrunken log2 fold change, cutoff=-0.05) for item "RRIRERPPRLPRPRPRPVFTPRP"
Completion: Not met

---

test system: Escherichia coli TOP10; assay: shrunken log2 fold change of peptide-encoding DNA abundance (4.5 h post-induction vs induction); higher = less antimicrobial activity (less host growth inhibition); details: time post-induction: 4.5 h; library: site-saturation at positions 5, 18, 19, 20
In this section, each of the sequences is paired with its reported shrunken log2 fold change.
Note: the reply should be a number with no unit written.

The recorded shrunken log2 fold change for entry "RRIRRRPPRLPRPRPRPTKMPRP" equals 0.248

The recorded shrunken log2 fold change for entry "RRIRIRPPRLPRPRPRPADLPRP" equals 0.0446

The recorded shrunken log2 fold change for entry "RRIRARPPRLPRPRPRPTPWPRP" equals 0.563

The recorded shrunken log2 fold change for entry "RRIRRRPPRLPRPRPRPEWGPRP" equals 0.0686

The recorded shrunken log2 fold change for entry "RRIRIRPPRLPRPRPRPSLFPRP" equals -0.66

---

test system: Escherichia coli TOP10; assay: shrunken log2 fold change of peptide-encoding DNA abundance (4.5 h post-induction vs induction); higher = less antimicrobial activity (less host growth inhibition); conditions: time post-induction: 4.5 h; library: site-saturation at positions 5, 18, 19, 20
In this section, each of the sequences is paired with its reported shrunken log2 fold change.
Note: the reply should be a number with no unit written.

Below, 5 sequences whose answers are already recorded.
RRIRVRPPRLPRPRPRPWTNPRP
-0.584
RRIRGRPPRLPRPRPRPPHNPRP
0.585
RRIRTRPPRLPRPRPRPQCFPRP
0.0187
RRIRQRPPRLPRPRPRPCPWPRP
0.0978
RRIRFRPPRLPRPRPRPAFVPRP
-0.028

The recorded shrunken log2 fold change for entry "RRIRHRPPRLPRPRPRPKPFPRP" equals 0.0272

The recorded shrunken log2 fold change for entry "RRIRQRPPRLPRPRPRPWSQPRP" equals 0.0535

The recorded shrunken log2 fold change for entry "RRIRCRPPRLPRPRPRPMWPPRP" equals 0.481

---

test system: Escherichia coli TOP10; test: shrunken log2 fold change of peptide-encoding DNA abundance (4.5 h post-induction vs induction); higher = less antimicrobial activity (less host growth inhibition); conditions: time post-induction: 4.5 h; library: site-saturation at positions 5, 18, 19, 20
observation_type: shrunken log2 fold change
Note: the reply should be a number with no unit written.

Below, 2 sequences whose answers are already recorded.
RRIRGRPPRLPRPRPRPHGAPRP
-0.00969
RRIRRRPPRLPRPRPRPLFCPRP
0.24

The recorded shrunken log2 fold change for entry "RRIRQRPPRLPRPRPRPDQIPRP" equals 0.00408

---

system: Escherichia coli TOP10; experiment: shrunken log2 fold change of peptide-encoding DNA abundance (4.5 h post-induction vs induction); higher = less antimicrobial activity (less host growth inhibition); details: time post-induction: 4.5 h; library: site-saturation at positions 5, 18, 19, 20
Please use Yes whenever shrunken log2 fold change is not below 0.1, and No whenever it is.

RRIRPRPPRLPRPRPRPCIKPRP
No
RRIRGRPPRLPRPRPRPGWPPRP
Yes
RRIRARPPRLPRPRPRPHDWPRP
Yes
RRIRLRPPRLPRPRPRPPWGPRP
Yes
RRIRDRPPRLPRPRPRPHFNPRP
No
RRIRQRPPRLPRPRPRPIWSPRP
No

Prompt: API: above_or_equal(metric=shrunken log2 fold change, cutoff=0.1) for item "RRIRGRPPRLPRPRPRPFEDPRP"
Completion: Yes

Prompt: API: above_or_equal(metric=shrunken log2 fold change, cutoff=0.1) for item "RRIRNRPPRLPRPRPRPRCSPRP"
Completion: No

---

system: Escherichia coli TOP10; experiment: shrunken log2 fold change of peptide-encoding DNA abundance (4.5 h post-induction vs induction); higher = less antimicrobial activity (less host growth inhibition); conditions: time post-induction: 4.5 h; library: site-saturation at positions 5, 18, 19, 20
Please use 1 (yes) whenever shrunken log2 fold change is not below 0.1, and 0 (no) whenever it is.

Solved entries (count: 6):
RRIRPRPPRLPRPRPRPAGPPRP
1 (yes)
RRIRARPPRLPRPRPRPMSIPRP
0 (no)
RRIRCRPPRLPRPRPRPLGLPRP
0 (no)
RRIRRRPPRLPRPRPRPAAYPRP
1 (yes)
RRIRLRPPRLPRPRPRPVHIPRP
0 (no)
RRIRSRPPRLPRPRPRPVHIPRP
0 (no)

Prompt: API: above_or_equal(metric=shrunken log2 fold change, cutoff=0.1) for item "RRIRGRPPRLPRPRPRPDPSPRP"
Completion: 1 (yes)

---

test system: Escherichia coli TOP10; experiment: shrunken log2 fold change of peptide-encoding DNA abundance (4.5 h post-induction vs induction); higher = less antimicrobial activity (less host growth inhibition); settings: time post-induction: 4.5 h; library: site-saturation at positions 5, 18, 19, 20
Recorded shrunken log2 fold change split into classes low (below -0.07), moderate (-0.07 to below 0.1), high (0.1 or more)

Solved entries (count: 6):
RRIRIRPPRLPRPRPRPISWPRP
low
RRIRGRPPRLPRPRPRPIWYPRP
low
RRIRDRPPRLPRPRPRPKCVPRP
high
RRIRSRPPRLPRPRPRPVWHPRP
high
RRIRWRPPRLPRPRPRPSCHPRP
moderate
RRIRERPPRLPRPRPRPPQHPRP
high

Prompt: Bin? "RRIRVRPPRLPRPRPRPDFRPRP"
Completion: moderate

Prompt: Bin? "RRIRERPPRLPRPRPRPMRIPRP"
Completion: high

---

test system: Escherichia coli TOP10; test: shrunken log2 fold change of peptide-encoding DNA abundance (4.5 h post-induction vs induction); higher = less antimicrobial activity (less host growth inhibition); conditions: time post-induction: 4.5 h; library: site-saturation at positions 5, 18, 19, 20;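 also: peptides expressed intracellularly from a pBAD plasmid library in pooled LB shake-flask culture, induced with 0.3% L-arabinose, DNA abundance read by NGS, three biological replicates, DESeq2 with apeglm shrinkage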
observation_type: shrunken log2 fold change
Note: the reply should be a number with no unit written.

Below, 4 sequences whose answers are already recorded.
RRIRVRPPRLPRPRPRPGCVPRP
0.267
RRIRHRPPRLPRPRPRPYDGPRP
-0.00992
RRIRTRPPRLPRPRPRPIYPPRP
-0.243
RRIRYRPPRLPRPRPRPTNSPRP
-0.342

The recorded shrunken log2 fold change for entry "RRIRHRPPRLPRPRPRPKQGPRP" equals -0.0386

The recorded shrunken log2 fold change for entry "RRIRQRPPRLPRPRPRPESDPRP" equals 0.319

The recorded shrunken log2 fold change for entry "RRIRNRPPRLPRPRPRPSPEPRP" equals -0.123

The recorded shrunken log2 fold change for entry "RRIRPRPPRLPRPRPRPGFTPRP" equals -0.139

The recorded shrunken log2 fold change for entry "RRIRERPPRLPRPRPRPYSFPRP" equals -0.0431

The recorded shrunken log2 fold change for entry "RRIRYRPPRLPRPRPRPRSAPRP" equals -0.0647

The recorded shrunken log2 fold change for entry "RRIRTRPPRLPRPRPRPKHSPRP" equals -0.416

Provenance of the data: the supplement of paper PMC9112550
